Tested on: kochia (Kochia scoparia)
Assay: Test A postemergence kochia
Format: in vivo
Details: Bassia scoparia, post-emergence, 240 h, 500 g ai/ha, 0 to 100 scale, 0 is no effect, 100 is complete control, read-out: Plant response rating, Kochia
quantity.name: pest or weed control at 500 g/ha

Sample records with pest or weed control at 500 g/ha:
>>> print(df.to_string())
                                   molecule               system_name  assay_value
0  O=C1NCCC(c2ccc(C(F)(F)F)cc2)C1C(=O)Nc1ccccc1F (stereo not shown)  kochia (Kochia scoparia)           0%
1  O=C1NCCC(c2cccc(C(F)F)c2)C1C(=O)Nc1cccc(F)c1F (stereo not shown)  kochia (Kochia scoparia)           0%
2  CN1CC[C@H](c2ccc(F)cc2)[C@@H](C(=O)Nc2ccccc2C(F)(F)F)C1=O  kochia (Kochia scoparia)           0%
3  O=C1NCC[C@H](c2cccc(C(F)(F)F)c2)[C@H]1C(=O)Nc1cccc(F)c1F  kochia (Kochia scoparia)           0%
4  O=C1NCC[C@H](c2cccc(C(F)(F)F)c2)[C@H]1C(=O)Nc1cccc(Cl)c1F  kochia (Kochia scoparia)           0%

Please supply pest or weed control at 500 g/ha for each of the following items, keeping them in order.
1. CN1CC[C@H](c2ccc(F)cc2)[C@@H](C(=O)Nc2cccc(F)c2F)C1=O
2. O=C1NCCC(c2ccc(C(F)(F)F)cc2)C1C(=O)Nc1ccccc1Cl (stereo not shown)
3. O=C1NCCC(c2cccc(C(F)(F)F)c2)C1C(=O)Nc1ccc(F)c(F)c1F (stereo not shown)
4. O=C1NCC[C@H](c2ccc(F)cc2)[C@H]1C(=O)Nc1ccccc1C(F)(F)F
5. O=C1NCC[C@H](c2cccc(Cl)c2)[C@H]1C(=O)Nc1cccc(F)c1F
6. O=C1NCCC(c2ccc(C(F)(F)F)cc2)C1C(=O)Nc1cccc(F)c1F (stereo not shown)

Response given:
1. 20%
2. 0%
3. 0%
4. 0%
5. 30%
6. 50%

Please supply pest or weed control at 500 g/ha for each of the following items, keeping them in order.
1. O=C1NCCC(c2cccc(Cl)c2)C1C(=O)Nc1cccc(F)c1F (stereo not shown)
2. O=C1NCC[C@H](c2ccc(C(F)(F)F)cc2)[C@H]1C(=O)Nc1cccc(F)c1F

Response given:
["0%", "60%"]

---

I'd appreciate it if you could supply Ryegrass, Italian plant response rating values for the items below.
Tested on: ryegrass, Italian (Italian ryegrass, Lolium multiflorum)
Experiment: Test A preemergence ryegrass, Italian
Type: in vivo
Details: 500 g ai/ha, 0 to 100 scale, 0 no effect, 100 complete control
Give bare numbers.

Sample records with Ryegrass, Italian plant response rating:
>>> df
                                   compound  assay_value
0  O=C1NCCC(c2cccc(Cl)c2)C1C(=O)Nc1ccccc1C(F)(F)F (racemic)            0
1  O=C1NCCC(c2cccc(C(F)(F)F)c2)C1C(=O)Nc1ccccc1Cl (racemic)           40
2  O=C1NCC[C@@H](c2cccc(C(F)(F)F)c2)[C@@H]1C(=O)Nc1ccc(F)c(F)c1F            0
3  O=C1NCCC(c2ccc(C(F)(F)F)cc2)C1C(=O)Nc1cccc(F)c1Cl (racemic)            0
4  O=C1NCC[C@@H](c2cccc(Cl)c2)[C@@H]1C(=O)Nc1cccc(F)c1F            0

Please supply Ryegrass, Italian plant response rating for each of the following items, keeping them in order.
1. O=C1NCCC(c2cccc(OC(F)F)c2)C1C(=O)Nc1ccc(F)c(F)c1F (racemic)
2. O=C1NCCC(c2cccc(C(F)(F)F)c2)C1C(=O)Nc1cccc(Cl)c1F (racemic)
3. O=C1NCC[C@@H](c2cccc(C(F)(F)F)c2)[C@@H]1C(=O)Nc1cccc(Cl)c1F
4. O=C1NCCC(c2cccc(OC(F)(F)F)c2)C1C(=O)Nc1ccccc1C(F)(F)F (racemic)
5. O=C1NCCC(c2cccc(OC(F)(F)F)c2)C1C(=O)Nc1ccccc1F (racemic)

Response given:
0
40
0
0
0

Please supply Ryegrass, Italian plant response rating for each of the following items, keeping them in order.
1. CS(=O)(=O)c1ccccc1NC(=O)C1C(=O)NCCC1c1cccc(C(F)(F)F)c1 (racemic)
2. O=C1NCCC(c2cccc(C(F)(F)F)c2)C1C(=O)Nc1cccc(Cl)c1Cl (racemic)
3. O=C1NCCC(c2ccc(C(F)(F)F)cc2)C1C(=O)Nc1ccccc1C(F)(F)F (racemic)
4. O=C1NCCC(c2ccccc2C(F)(F)F)C1C(=O)Nc1ccccc1C(F)(F)F (racemic)
5. O=C1NCCC(c2cccc(OC(F)F)c2)C1C(=O)Nc1ccccc1F (racemic)
6. O=C1NCCC(c2cccc(OC(F)F)c2)C1C(=O)Nc1cccc(F)c1F (racemic)
7. O=C(Nc1ccccc1C(F)(F)F)C1C(=O)N(C2CC2)CCC1c1ccc(F)cc1 (stereo not drawn)
8. O=C(Nc1ccccc1C(F)(F)F)C1C(=O)N(Cc2ccccc2)CCC1c1ccc(F)cc1 (stereo not drawn)

Response given:
30
0
0
0
0
20
0
0

Please supply Ryegrass, Italian plant response rating for each of the following items, keeping them in order.
1. O=C1NCCC(c2ccccc2C(F)(F)F)C1C(=O)Nc1cccc(F)c1F (racemic)
2. O=C1NCC[C@@H](c2ccc(C(F)(F)F)cc2)[C@@H]1C(=O)Nc1cccc(F)c1F
3. Cc1c(F)cccc1NC(=O)C1C(=O)NCCC1c1cccc(C(F)(F)F)c1 (racemic)
4. O=C1NCCC(c2cccc(C(F)F)c2)C1C(=O)Nc1ccccc1F (stereo not drawn)
5. O=C1NCCC(c2cccc(C(F)(F)F)c2)C1C(=O)Nc1ccc(F)c(F)c1F (racemic)
6. O=C1NCCC(c2cccc(Cl)c2)C1C(=O)Nc1ccccc1F (racemic)

Response given:
1: 0; 2: 20; 3: 50; 4: 0; 5: 40; 6: 0

---

I'd appreciate it if you could supply Plant response rating values for the items below.
Tested on: barnyardgrass (Echinochloa crus-galli)
Assay: Test B flooded paddy test barnyardgrass
Format: in vivo
Conditions: Table B, Flood, 250 g ai/ha, scale 0 to 100

Please supply Plant response rating for each of the following items, keeping them in order.
1. O=C1NCC[C@@H](c2cccc(Cl)c2)[C@@H]1C(=O)Nc1cccc(F)c1F
2. O=C1NCC[C@@H](c2ccc(C(F)(F)F)cc2)[C@@H]1C(=O)Nc1cccc(F)c1F
3. O=C(Nc1ccccc1C(F)(F)F)C1C(=O)N(Cc2ccccc2)CCC1c1ccc(F)cc1 (centres unmarked)

Response given:
1: 0; 2: 0; 3: 0

---

System: ducksalad (Heteranthera limosa)
Assay: Test B flooded paddy test ducksalad
Format: in vivo
Details: Table B, Flood, 250 g ai/ha, scale 0 to 100
quantity.name: Plant response rating

In [3]: df
Out[3]:
                                   compound  assay_value
0  O=C1NCCC(c2ccc(F)cc2)C1C(=O)Nc1ccccc1F (racemic) [Compound 5]            0

Please supply Plant response rating for each of the following items, keeping them in order.
1. O=C1NCC[C@@H](c2ccc(C(F)(F)F)cc2)[C@@H]1C(=O)Nc1cccc(F)c1F [Compound 23]
2. O=C1NCCC(c2cccc(OC(F)(F)F)c2)C1C(=O)Nc1ccccc1C(F)(F)F (racemic) [Compound 38]
3. O=C1NCCC(c2ccc(F)c(F)c2)C1C(=O)Nc1ccccc1C(F)(F)F (racemic) [Compound 6]
4. O=C1NCC[C@@H](c2ccc(C(F)(F)F)cc2)[C@@H]1C(=O)Nc1ccc(F)c(F)c1F [Compound 55]
5. O=C1NCC[C@@H](c2cccc(C(F)(F)F)c2)[C@@H]1C(=O)Nc1ccc(F)c(F)c1F [Compound 29]
6. O=C1NCCC(c2cccc(OC(F)(F)F)c2)C1C(=O)Nc1ccccc1F (racemic) [Compound 37]

Response given:
1: 0; 2: 85; 3: 60; 4: 0; 5: 0; 6: 90

Please supply Plant response rating for each of the following items, keeping them in order.
1. O=C1NCCC(c2ccc(F)cc2)C1C(=O)Nc1ccccc1C(F)(F)F (racemic) [Compound 4]
2. O=C1NCC[C@@H](c2cccc(C(F)(F)F)c2)[C@@H]1C(=O)Nc1cccc(F)c1F [Compound 20]
3. O=C1NCC[C@@H](c2cccc(C(F)(F)F)c2)[C@@H]1C(=O)Nc1cccc(Cl)c1F [Compound 24]
4. O=C1NCCC(c2cccc(C(F)F)c2)C1C(=O)Nc1ccc(F)c(F)c1F (stereo not shown) [Compound 47]
5. O=C1NCCC(c2cccc(OC(F)(F)F)c2)C1C(=O)Nc1cccc(F)c1F (racemic) [Compound 39]
6. O=C1NCCC(c2cccc(C(F)F)c2)C1C(=O)Nc1ccccc1F (stereo not shown) [Compound 48]
7. O=C(Nc1ccccc1C(F)(F)F)C1C(=O)N(C2CC2)CCC1c1ccc(F)cc1 (stereo not shown) [Compound 50]

Response given:
1. 0
2. 0
3. 0
4. 50
5. 100
6. 60
7. 0

Please supply Plant response rating for each of the following items, keeping them in order.
1. O=C1NCCC(c2ccc(F)c(F)c2)C1C(=O)Nc1ccccc1F (racemic) [Compound 1]
2. O=C1NCCC(c2ccccc2)C1C(=O)Nc1ccccc1C(F)(F)F (racemic) [Compound 2]

Response given:
1: 0; 2: 0
